Source of measurements: patent US6420330B1

Tested on: Staphylococcus aureus ATCC 6538
Experiment: DGHM suspension test, microbicidal activity
Type: cell-based
Conditions: CU 800 mg/l; contact time 15 mins.
Entries and their measured logarithmic reduction factor follow.

compound: CCCCCCCC(=O)OCC[N+](C)(CCO)CCOC(=O)CCCCCCC.COS(=O)(=O)[O-] [Example 7]
logarithmic reduction factor: >5.53

Record summary for CCCCCCCCCCCC(=O)OCC[N+](C)(CCO)CCOC(=O)CCCCCCCCCCC.COS(=O)(=O)[O-] [Example 5] : reported logarithmic reduction factor = >5.73

Record summary for CCCCCCCC(=O)OCC[N+](C)(CCOC(=O)CCCCCCC)CCOC(=O)CCCCCCC.COS(=O)(=O)[O-] [Example 2] : reported logarithmic reduction factor = >5.38

Record summary for CCCCCCCC(=O)OCC[N+](C)(C)CCOC(=O)CCCCCCC.COS(=O)(=O)[O-] [Example 1] : reported logarithmic reduction factor = <3.59

Record summary for CCCCCCCCCC(=O)OCC[N+](C)(CCO)CCOC(=O)CCCCCCCCC.COS(=O)(=O)[O-] [Example 6] : reported logarithmic reduction factor = >5.73

Record summary for CCCCCCCCC(=O)OCC[N+](C)(C)CCOC(=O)CCCCCCCC.COS(=O)(=O)[O-] [Example 3] : reported logarithmic reduction factor = >5.74
